Measured Emax accompanies every entry in the list below.
Tested on: ALP in normal human articular chondrocytes (NHACs)
Assay: Alkaline Phosphatase (ALP) activity assay (staining and quantitation) in NHACs, prevention of chondrocyte hypertrophy
Type: cell-based
Conditions: Chondrocyte, 288 h, value in parentheses, human IL-1 beta 10 ng/mL, 12 days, read-out: ALP in NHAC (% Efficacy)
Experimental: The compounds of the present invention were evaluated in the Alkaline Phosphatase (ALP) activity assay to determine the ability of the compounds to prevent chondrocyte hypertrophy in normal human articular chondrocytes (NHACs). […] The staining was imaged by fluorescent microscopy, using the 561 nm wavelength, and/or quantified by high content imaging with the Image press Confocal (Molecular Devices, Sunnyvale, Calif.). […]

{"columns": ["compound", "unit abbrev", "Emax"],
 "data": [
  ["CC(C)n1cc([C@H]2[C@H]3O[C@H](C[C@@H]3O)[C@@H]2C(=O)Nc2cccc(C(F)(F)F)c2)c(C(F)(F)F)n1 (racemic)", "%", 70],
  ["Cc1cc(NC(=O)[C@@H]2[C@@H](c3cccc(C(F)(F)F)c3)[C@H]3O[C@@H]2C[C@@H]3O)cc(C(F)(F)F)c1 (racemic)", "%", 105],
  ["Cc1cc(NC(=O)[C@@H]2[C@@H](c3cn(C)nc3C(F)(F)F)[C@H]3O[C@@H]2C[C@@H]3O)cc(C(F)(F)F)c1 (racemic)", "%", 81],
  ["COc1cc([C@H]2[C@H]3O[C@H](C[C@@H]3O)[C@@H]2C(=O)Nc2cc(C(F)(F)F)ccc2F)ccn1 (racemic)", "%", 53],
  ["CC(C)n1cc([C@H]2[C@H]3O[C@H](C[C@@H]3O)[C@@H]2C(=O)Nc2cc(C(F)(F)F)ccn2)c(C(F)(F)F)n1 (racemic)", "%", 83],
  ["Cn1cc([C@H]2[C@H]3O[C@H](C[C@@H]3O)[C@@H]2C(=O)Nc2cc(C(F)(F)F)cc(C3CC3)n2)c(C(F)(F)F)n1 (racemic)", "%", 83]
]}
